# TARGET OF ASSAY: T1, recombinant human IL-17A (human, UniProt Q16552 24-155)
# T1 construct: Bought recombinant protein (Peprotech AF-200-17); also called Peprotech AF-200-17
# T1 sequence (Q16552 24-155): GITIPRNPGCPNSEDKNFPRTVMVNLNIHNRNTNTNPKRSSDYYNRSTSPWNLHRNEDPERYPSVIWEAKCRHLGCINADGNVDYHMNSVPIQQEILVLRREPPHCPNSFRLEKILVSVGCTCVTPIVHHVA
# ASSAY DETAILS: SPR (BIAcore T200), IL-17A coupled to CM5 chip, single-cycle kinetics
PARAMETER: kon (M⁻¹ s⁻¹)
Quick reminder: number only, in M⁻¹ s⁻¹, skip the unit.

Asked: kon for Clone 3.3 (VHH, Human single VH domain) VHH: QVQLVQSGAEVKKPGASVKVSCAASGYTFTDYYLHWVRQAPGQGLEWMGWINPNTGTTKYAREFEGRVTMTRDTSISTAYMELSRLRSDDTAVYYCASMDRDYYDTSGYFGWFDSWGQGTLVTVSS ?
Given back: 99800

Asked: Please look up its kon: Clone 3.13 (VHH, Human single VH domain) VHH: QVQLVQSGAEVKKPGASVKVSCKASGYNFDAYHINWVRQAPGQGLEWMGSIKPNSGATKYAQKFQGRVTITRDTSISTAYMELSRLRSDDTAVYYCASLDRDTWYPHSYAGWFDSWGQGTLVTVSS
Given back: 1.02e+06

Asked: Reported kon for Clone 3.11 (VHH, Human single VH domain) VHH: QVQLVQSGAEVKKPGASVKVSCKASGYNFDAYHINWVRQAPGQGLEWMGSIKPNSGATKYAQKFQGRVTITRDTSISTAYMELSRLRSDDTAVYYCASLDRDTWYPHSYFGWFDSWGQGTLVTVSS : what is it?
Given back: 538000
